molecular target: T1, human PD-L1-his tag protein (human, UniProt Q9NZQ7 19-238); assay: SPR (Biacore), affinity ranking, PDL1-His
T1 construct: also called human PD-L1-His protein; recombinant PD-L1 protein; not shown: his tag
T1 sequence (Q9NZQ7 19-238 limits assumed): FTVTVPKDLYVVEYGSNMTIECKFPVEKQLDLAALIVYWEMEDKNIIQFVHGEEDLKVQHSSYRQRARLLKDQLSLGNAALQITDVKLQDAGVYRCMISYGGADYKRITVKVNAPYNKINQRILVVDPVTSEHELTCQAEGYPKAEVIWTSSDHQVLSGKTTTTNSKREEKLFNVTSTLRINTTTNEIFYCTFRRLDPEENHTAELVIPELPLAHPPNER
Each entry below carries its recorded koff.
Please reply with the bare figure in s⁻¹ and do not write the unit itself.

Query: Form field: reported koff of Hu67F3G7-8 (antibody, V domains shown, humanized) VH: EVQLVQSGAEVKKPGASVKVSCKASGYIFTDFWVSWVRQAPGQGLEWIGEIYPNSGVSRYNEKFKGRVTMTVDKSISTAYMELSRLRSDDTAVYYCTKYFGYTYWFGYWGQGTLVTVSS VL: DTVLTQSPSSLSASVGDRVTITCRASKSVSTYMHWYQQKPGKAPKLLIYSASHLESGVPSRFSGSGSGTDFTLTISSLQPEDFATYYCQQSNELPVTFGGGTKVEIK
Reply: 9.84e-05

Query: Form field: reported koff of Hu89C10H8-13 (antibody, V domains shown, humanized) VH: EVQLVESGGGLVKPGGSLRLSCAASGFTFSNYWMTWVRQAPGKGLEWVASITNTGSSTFYPDSVKGRFTISRDNAKNSLYLQMNSLRAEDTAVYYCARDTTIAPFDYWGQGTMVTVSS VL: DIQMTQSPSSLSASVGDRVTITCKASQNLNEYLNWYQQKLGEAPKRLIYKTNTLQAGIPSRFSGSGSGIDYTLTISSLQPEDFATYFCSQYNSGNTFGQGTKLEIK
Reply: 0.000433
